# Tested on: LOC_OS01G10900-cb004
# method_description: thermal shift delta Tm vs DMSO control; higher = stronger stabilization (binding);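 further: purified Escherichia coli-expressed rice kinase domain construct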
# experimental_conditions: 12.5 µM; protein concentration 2 µM
measured_property: thermal shift delta Tm (°C)
One number for each entry, in °C.

Below: 2 compounds and their reported thermal shift delta Tm.
>>> recorded_value("CNC(=O)c1ccc(-c2cnc3ncc(Cc4ccc5ncccc5c4)n3n2)cc1F")
0.48
>>> recorded_value("Oc1ccc(Nc2nc(-c3ccc(Cl)cc3)cs2)cc1")
0.5

For each entry beneath this line, provide reported thermal shift delta Tm.
1. CCOC(=O)c1cnc2ccc(-c3cncc(NS(=O)(=O)c4ccccc4)c3)cn12
2. O=C(NCCO)c1cccc(-c2cc(Nc3ccc(OC(F)(F)F)cc3)ncn2)c1

[A]
[1.17, 0.34]

Lab note: each compound below needs its thermal shift delta Tm filled in.
1. COCCOc1cnc2ccn([C@H](C)c3nnc4c(F)cc(-c5cnn(C)c5)cn34)c(=O)c2c1
2. O=C(/C=C/c1ccc2ccccc2n1)c1ccncc1

[A]
1. 0.34
2. 1.49

---

# Test system: LOC_OS01G60700-cb002
# method_description: thermal shift delta Tm vs DMSO control; higher = stronger stabilization (binding)
# experimental_conditions: 12.5 µM; protein concentration 2 µM
# if value of thermal shift delta Tm reaches 1 °C, tag met; if it stays below, tag not met

>>> group_label("C[C@@H](NC(=O)c1ncnc(N)c1Cl)c1ncc(C(=O)Nc2cc(C(F)(F)F)c(Cl)cn2)s1")
"met"
>>> group_label("COc1nccc(-c2c(-c3ccc(F)cc3)ncn2C2CCC(O)CC2)n1 (centres undefined)")
"not met"
>>> group_label("CCc1nc(-c2cccc(C)c2)c(-c2ccnc(NC(=O)c3ccccc3)c2)s1")
"met"
>>> group_label("CN1CCC(Nc2nc(Nc3ccc(Oc4ccccc4)cc3)c3c(=O)[nH]cc(Br)c3n2)CC1")
"met"
>>> group_label("CN1CCCN(C(=O)c2cccc(-c3ccc(/C=C4/C(=O)Nc5ccc(Cl)cc54)o3)c2)CC1")
"met"

[Q] Dear colleague, could you confirm whether O=C(Nc1nccs1)C(c1cc(F)ccc1O)N1Cc2ccccc2C1=O (centres undefined) has thermal shift delta Tm at or above 1 °C?
[A] not met

[Q] Could you tell me if the measured thermal shift delta Tm of CCc1cnn2c(NCc3ccc[n+]([O-])c3)cc(N3CCCC[C@H]3CCO)nc12 reaches 1 °C or more?
[A] not met

[Q] Quick check: does CCCCNc1ncc(C(=O)NCc2ccc(-n3ccnc3)cc2)c(NC2CCC(O)CC2)n1 (centres undefined) have thermal shift delta Tm greater than or equal to 1 °C?
[A] met

---

Please go through the items and note down their thermal shift delta Tm.
# Test system: LOC_OS05G30820-cb001
# method_description: thermal shift delta Tm vs DMSO control; higher = stronger stabilization (binding)
# experimental_conditions: 12.5 µM; protein concentration 2 µM
Returns: string containing the number followed by the unit.

Past entries and their recorded results:
>>> recorded_value("C[S+]([O-])c1ccc(-c2nc(-c3ccc(F)cc3)c(-c3ccncc3)[nH]2)cc1 (stereo not drawn)")
"0.6 °C"
>>> recorded_value("COc1cc2nccc(Oc3ccc(NC(=O)C4(C(=O)Nc5ccc(F)cc5)CC4)cc3)c2cc1OC [Cabozantinib malate (XL184)]")
"0.41 °C"
>>> recorded_value("CNC(=O)CN1CCC(Oc2cc3c(Nc4cccc(Cl)c4F)ncnc3cc2OC)CC1")
"0.6 °C"
>>> recorded_value("Cc1c(NC(=O)c2ccc(C(C)(C)C)cc2)cccc1-c1cn(C)c(=O)c(Nc2ccc(C(=O)N3CCOCC3)cc2)n1")
"0.18 °C"
>>> recorded_value("CN(C)C/C=C/C(=O)Nc1cc2c(Nc3ccc(F)c(Cl)c3)ncnc2cc1O[C@H]1CCOC1 [Afatinib (BIBW2992) Dimaleate]")
"0.24 °C"

# batch size: 3; output thermal shift delta Tm per entry
1. O=C1NC(=O)/C(=C/c2ccc(-c3ccc(F)cc3O)o2)S1
2. c1cc(-c2cnn3cc(-c4ccc(OCCN5CCCCC5)cc4)cnc23)ccn1 [Dorsomorphin 2HCl]
3. CC1(C)CNc2cc(NC(=O)c3cccnc3NCc3ccncc3)ccc21 [Motesanib Diphosphate (AMG-706)]

[A]
1. 1.01 °C
2. 1.22 °C
3. 0.49 °C

---

What thermal shift delta Tm was measured for each of the following?
# Test system: LOC_OS04G41100-cb001
# Sequence (as listed by the source): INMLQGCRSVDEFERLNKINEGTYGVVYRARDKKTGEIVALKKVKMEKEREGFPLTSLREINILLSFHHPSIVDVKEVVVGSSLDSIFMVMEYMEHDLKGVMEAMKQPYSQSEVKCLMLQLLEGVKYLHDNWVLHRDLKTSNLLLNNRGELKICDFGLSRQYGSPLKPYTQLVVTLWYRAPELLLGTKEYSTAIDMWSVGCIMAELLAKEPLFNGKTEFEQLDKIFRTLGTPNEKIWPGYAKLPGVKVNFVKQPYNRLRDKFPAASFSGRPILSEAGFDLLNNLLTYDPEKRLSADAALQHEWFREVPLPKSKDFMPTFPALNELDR
# method_description: thermal shift delta Tm vs DMSO control; higher = stronger stabilization (binding)
# experimental_conditions: 12.5 µM; protein concentration 2 µM
Numbers only, in °C.

>>> recorded_value("CCc1cc(Nc2nccc(-c3c(-c4ccc(OC)c(C(=O)Nc5c(F)cccc5F)c4)nc4ccccn34)n2)c(OC)cc1N1CCC(N2CCN(S(C)(=O)=O)CC2)CC1")
0.67
>>> recorded_value("CCCCNc1ncc(C(=O)NCc2ccc(-n3ccnc3)cc2)c(NC2CCC(O)CC2)n1 (stereo not drawn)")
0.89
>>> recorded_value("O=C1NC(=O)C(c2cnc3ccccn23)=C1c1cn2c3c(cc(F)cc13)CN(C(=O)N1CCCCC1)CC2")
1.44
>>> recorded_value("CO[C@H]1C[C@@H]2CC[C@@H](C)[C@@](O)(O2)C(=O)C(=O)N2CCCC[C@H]2C(=O)O[C@H]([C@H](C)C[C@@H]2CC[C@@H](O)[C@H](OC)C2)CC(=O)[C@H](C)/C=C(\\C)[C@@H](O)[C@@H](OC)C(=O)[C@H](C)C[C@H](C)/C=C/C=C/C=C/1C [Rapamycin (Sirolimus)]")
0.69
>>> recorded_value("C=CC(=O)N1CCN(CCCn2c(=O)c(-c3c(Cl)c(OC)cc(OC)c3Cl)cc3cnc(NC)nc32)CC1")
0.38

Provide thermal shift delta Tm values for the following items, in order.
1. O=C1NC(=O)C(c2ccccc2[N+](=O)[O-])=C1Nc1ccc(O)c(Cl)c1
2. CNS(=O)(=O)Nc1nccc(Cc2c(C)c3ccc(Oc4ncccn4)cc3oc2=O)c1F
3. Cn1nccc1Nc1nccc(-c2ccn([C@H](CO)c3ccc(Cl)c(F)c3)c(=O)c2)n1

[A]
1. 0.23
2. 0.2
3. 2.7

---

# Test system: LOC_OS05G30820-cb001
# method_description: thermal shift delta Tm vs DMSO control; higher = stronger stabilization (binding)
# experimental_conditions: 12.5 µM; protein concentration 2 µM
Exercise: state measured thermal shift delta Tm for each of the molecules provided.
One number for each entry, in °C.

Here are 2 molecules together with their reported answers.
>>> recorded_value("CNC(=O)c1cc(COc2nnc(Nc3ccc(Cl)cc3)c3ccoc23)ccn1")
0.56
>>> recorded_value("CC(C)(CO)n1cc(C(=O)c2cncc(NC(=O)Cc3ccc(Cl)cn3)c2)c2cnc(N)nc21")
0.02

Give thermal shift delta Tm for each listed item.
1. COc1cc(CCc2cc(NC(=O)c3ccc(N4CC(C)NC(C)C4)cc3)n[nH]2)cc(OC)c1 (centres undefined)
2. N#C/C(=C(/N)Sc1ccc(N)cc1)c1ccccc1C(F)(F)F
3. CN(C)CCCn1cc(C2=C(c3c[nH]c4ccccc34)C(=O)NC2=O)c2ccccc21

[A]
1. 0.59
2. 0.55
3. 0.37

Please go through the list and note thermal shift delta Tm for each molecule.
1. CC(C)Oc1ccc(-c2nn([C@@H](C)c3oc4ccc(F)cc4c(=O)c3-c3cccc(F)c3)c3ncnc(N)c23)cc1F
2. Cc1cccc(CC(=O)N2CCc3c2ccc(-c2cn(C)c4ncnc(N)c24)c3F)n1
3. O=c1ncn2nc(Sc3ccc(F)cc3F)ccc2c1-c1c(Cl)cccc1Cl
4. Cc1ccc(C(=O)Nc2ccc(CN3CCN(C)CC3)c(C(F)(F)F)c2)cc1C#Cc1cnc2[nH]ncc2c1 [GZD824 Dimesylate]

[A]
1. 0.43
2. 0.47
3. 0.49
4. 2.1

---

# System: LOC_OS01G21960-cb002
# method_description: thermal shift delta Tm vs DMSO control; higher = stronger stabilization (binding)
# experimental_conditions: 12.5 µM; protein concentration 2 µM
Respond with Fulfilled for thermal shift delta Tm values of 0.8 °C and above, Not fulfilled for values below.

Some solved cases for reference:
>>> group_label("CN1CCN(c2nc(C3=C(c4c[nH]c5ccccc45)C(=O)NC3=O)c3ccccc3n2)CC1")
"Fulfilled"
>>> group_label("CNC(=O)c1cc(Oc2ccc(NC(=O)Nc3ccc(Cl)c(C(F)(F)F)c3)cc2)ccn1 [Sorafenib]")
"Fulfilled"
>>> group_label("COc1ncc(-c2cc(-c3ncc(CN4C[C@@H](C)O[C@@H](C)C4)o3)c3cn[nH]c3c2)cc1NS(C)(=O)=O")
"Not fulfilled"
>>> group_label("Cc1ccc([N+](=O)[O-])cc1S(=O)(=O)N(C)/N=C/c1cnc2ccc(Br)cn12")
"Fulfilled"
>>> group_label("CCc1cccc(CC)c1NC(=O)N1Cc2[nH]nc(NC(=O)c3ccc(N4CCN(C)CC4)cc3)c2C1")
"Not fulfilled"

[Q] Identify whether the reported thermal shift delta Tm of the following compound is 0.8 °C or greater: C1=N/C2=N/c3ccc(OCCN4CCCC4)c(c3)COC/C=C/COCc3cccc(c3)C(=C1)N2 [Pacritinib (SB1518)]
[A] Fulfilled

[Q] hey, is thermal shift delta Tm for this one >= 0.8 °C? CN1CCN(c2ccc3nc(-c4c(N)c5c(F)cccc5[nH]c4=O)[nH]c3c2)CC1 [Dovitinib (TKI-258) Dilactic Acid]
[A] Fulfilled

[Q] Answer whether thermal shift delta Tm of CCC(=O)Nc1cccc(Oc2nc(Nc3ccc(N4CCN(C)CC4)cc3OC)ncc2Cl)c1 is greater than or equal to 0.8 °C.
[A] Not fulfilled

[Q] # bool: thermal shift delta Tm of COc1cc(Nc2ncc(F)c(Nc3ccc4c(n3)NC(=O)C(C)(C)O4)n2)cc(OC)c1OC [R406 (free base)] >= 0.8 °C
[A] Fulfilled

[Q] Identify whether the reported thermal shift delta Tm of the following compound is 0.8 °C or greater: CCN1CCN(Cc2ccc(Nc3ncc(F)c(-c4cc(F)c5nc(C)n(C(C)C)c5c4)n3)nc2)CC1
[A] Fulfilled
